experiment: Cytotoxicity against human MT2 cells assessed as reduction in cell viability incubated for 4 days by XTT assay; type: toxicity, cell-based; conditions: time 4 day

smiles text: CC1(C)CC(NC(=O)C(=O)Nc2ccc(Cl)cc2)CC(C)(C)N1
CC50 at 96 h: > 280 µM

###

experiment: Cytotoxicity against human CEMx174 5.25M7 cells assessed as reduction in cell viability incubated for 48 hrs by CCK-8 assay; assay type: toxicity, cell-based

smiles text: CC1(C)CC(NC(=O)C(=O)Nc2ccc(Cl)c(F)c2)CC(C)(C)N1C(=O)COc1ccc(CCN2C(=O)/C(=C/c3ccc(-c4ccc(Cl)c(C(=O)O)c4)o3)SC2=S)cc1
units: µM
CC50 at 48 h: 18
